Source: patent US20060160070A1

Target: HLA A*0201 (Homo sapiens, UniProt P04439, D140Y/D185E/D98H/E176V/E277Q/G131W/G231S/I119V/I121R/I166T/I218V/L300P/L318F/N151K/N90K/P208A/P217A/Q86G/Q94H/R138H/R169H/T345S)
Experiment: Multi-parametric analysis iScore
Assay type: binding
Set-up: scale not given here
Settings: index integrating t1/2 and ED50
Experimental: Multi-parametric analysis was performed to integrate the half-life (t½) and ED50 parameters in an index (iScore). The iScore (Table 13) reflects the capability of a peptide to reconstitute with MHC molecules in a stable complex, defining its overall level of binding.
Quick list: iScore per entry.
Readout Type: iScore

{"Substance": "155 (HNEWTLELL; HIV) [compound 155]", "Readout Type": "iScore", "Readout Number": 0}
{"Substance": "CSSNITGLI [compound 154]", "Readout Type": "iScore", "Readout Number": 0.114}
{"Substance": "KLAGRWPVT [compound 157]", "Readout Type": "iScore", "Readout Number": 0.129}
{"Substance": "KLAGRWPVK [compound 71]", "Readout Type": "iScore", "Readout Number": 0.084}
{"Substance": "ALFYKLDVI [compound 158]", "Readout Type": "iScore", "Readout Number": 0.460}
{"Substance": "CSSNITGLL [compound 69]", "Readout Type": "iScore", "Readout Number": 0.081}
{"Substance": "VTLTEEAEL [compound 156]", "Readout Type": "iScore", "Readout Number": 0.110}
{"Substance": "YNEWTLELL [compound 22]", "Readout Type": "iScore", "Readout Number": 0}
{"Substance": "RGRQKVVSL [compound 68]", "Readout Type": "iScore", "Readout Number": 0}
{"Substance": "ALFYKLDVV [compound 72]", "Readout Type": "iScore", "Readout Number": 0.484}
{"Substance": "FPRIWLHGL [compound 152]", "Readout Type": "iScore", "Readout Number": 0}
{"Substance": "RGRQKVVSI [compound 153]", "Readout Type": "iScore", "Readout Number": 0}
{"Substance": "70 (VPLTEEAEL; HIV) [compound 70]", "Readout Type": "iScore", "Readout Number": 0}

###

target: HLA A*0201 (Homo sapiens, UniProt P04439, D140Y/D185E/D98H/E176V/E277Q/G131W/G231S/I119V/I121R/I166T/I218V/L300P/L318F/N151K/N90K/P208A/P217A/Q86G/Q94H/R138H/R169H/T345S); assay: ITOPIA peptide binding assay; details: 1.11×10^−4M of peptide
Readout Type: level of binding, percent of positive control peptide binding

{"Substance": "155 (HNEWTLELL; HIV) [compound 155]", "Result": "5% of positive control"}
{"Substance": "ALFYKLDVI [compound 158]", "Result": "62% of positive control"}
{"Substance": "ALFYKLDVV [compound 72]", "Result": "80% of positive control"}
{"Substance": "70 (VPLTEEAEL; HIV) [compound 70]", "Result": "5% of positive control"}
{"Substance": "KLAGRWPVK [compound 71]", "Result": "26% of positive control"}
{"Substance": "RGRQKVVSL [compound 68]", "Result": "5% of positive control"}
{"Substance": "FPRIWLHGL [compound 152]", "Result": "9% of positive control"}
{"Substance": "CSSNITGLI [compound 154]", "Result": "44% of positive control"}
{"Substance": "YNEWTLELL [compound 22]", "Result": "7% of positive control"}
{"Substance": "CSSNITGLL [compound 69]", "Result": "37% of positive control"}
{"Substance": "RGRQKVVSI [compound 153]", "Result": "6% of positive control"}
{"Substance": "VTLTEEAEL [compound 156]", "Result": "26% of positive control"}
{"Substance": "KLAGRWPVT [compound 157]", "Result": "51% of positive control"}

###

molecular target: HLA A*2402 (Homo sapiens, UniProt P04439, D101N/D140Y/D185E/E176V/E190D/F33S/G103R/G107R/I119L/I121M/I306V/K335N/L105A/L180Q/L300P/N151K/N90K/Q86E/Q94H/R106L/R138H/R89G/T104I/T345S/V100E/W191G/Y123F); test: ITOPIA peptide binding assay; conditions: 1.11×10^−4M of peptide
Readout Type: level of binding, percent of positive control peptide binding

{"Substance": "FPRIWLHGL [compound 152]", "Result": "41% of positive control"}
{"Substance": "155 (HNEWTLELL; HIV) [compound 155]", "Result": "13% of positive control"}
{"Substance": "70 (VPLTEEAEL; HIV) [compound 70]", "Result": "6% of positive control"}
{"Substance": "ALFYKLDVI [compound 158]", "Result": "99% of positive control"}
{"Substance": "KLAGRWPVK [compound 71]", "Result": "11% of positive control"}

###

# iScore listing for each entry below
molecular target: HLA B*1501 (Homo sapiens, UniProt P01889, A329T/A93T/A95T/C349S/D201E/D98Y/E187L/E204Q/E69M/E70A/K202T/N87E/Q94N/R155S/R180W/S121R/S35A/S48A/V306I/V36M/Y140S/Y91S); construct: purchased; assay: Multi-parametric analysis iScore; format: binding; design: scale not given here; settings: index integrating t1/2 and ED50

{"Substance": "ALFYKLDVV [compound 72]", "iScore": 0}
{"Substance": "70 (VPLTEEAEL; HIV) [compound 70]", "iScore": 0}
{"Substance": "155 (HNEWTLELL; HIV) [compound 155]", "iScore": 0}
{"Substance": "YNEWTLELL [compound 22]", "iScore": 0}
{"Substance": "CSSNITGLI [compound 154]", "iScore": 0.112}
